# credit: patent US9951065B2

target: IDO1 (Homo sapiens, UniProt P14902); construct: HeLa cells were treated with a test compound in the presence of IFNγ, which induces IDO1 expression; host or cells: H1-HeLa cells, IDO1 induced with IFNγ; assay: Cell-based (HeLa) assay for measurement of IDO1 inhibition (kynurenine levels in supernatant after IFNγ induction); conditions: HeLa cells, IFNγ-induced IDO1, kynurenine in supernatant after 48 hour incubation; geometric mean of a minimum of four determinations
Sequence (P14902 whole entry): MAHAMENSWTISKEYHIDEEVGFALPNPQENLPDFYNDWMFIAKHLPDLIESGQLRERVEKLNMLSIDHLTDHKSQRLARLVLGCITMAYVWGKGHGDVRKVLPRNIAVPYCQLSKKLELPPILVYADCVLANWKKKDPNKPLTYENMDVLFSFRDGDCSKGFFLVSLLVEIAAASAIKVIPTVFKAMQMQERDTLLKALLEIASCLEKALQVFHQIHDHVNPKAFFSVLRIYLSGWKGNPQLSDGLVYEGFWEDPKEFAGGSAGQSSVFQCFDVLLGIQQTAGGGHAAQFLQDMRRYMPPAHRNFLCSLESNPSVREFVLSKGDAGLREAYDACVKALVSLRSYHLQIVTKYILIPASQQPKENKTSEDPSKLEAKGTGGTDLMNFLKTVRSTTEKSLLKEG
pEC50: −log10 of the molar value.
reported.endpoint: pEC50

O/N=C(\Nc1ccc(F)c(Cl)c1)c1ccnc2nc(-c3ncc[nH]3)[nH]c12	6.28
CS(=O)(=O)CCNc1nc2c(F)c(F)cc(/C(=N/O)Nc3ccc(F)c(Cl)c3)c2[nH]1	5.67
CC(C)NCc1nc2c(/C(=N/O)Nc3ccc(F)c(Cl)c3)cc(F)c(F)c2[nH]1	6.25

I: NC1(CNc2nc3nccc(/C(=N/O)Nc4ccc(F)c(Cl)c4)c3[nH]2)CC1
II: O/N=C(\Nc1ccc(F)c(Cl)c1)c1ccc(OC(F)(F)F)c2nc[nH]c12
# input Min pEC50? I | II Answer = label.
# output II

A: O/N=C(\Nc1ccc(F)c(Cl)c1)c1ccnc2nc(NC3CCOCC3)[nH]c12
B: CN(C)CCNc1nc2c(F)ccc(/C(=N/O)Nc3ccc(F)c(Cl)c3)c2[nH]1
# input Min pEC50? A | B Answer = label.
# output A
(A: 5.67, B: 6.37)

====

molecular target: IDO1 (Homo sapiens); construct: HeLa cells were treated with a test compound in the presence of IFNγ, which induces IDO1 expression; host or cells: H1-HeLa cells, IDO1 induced with IFNγ; assay: Cell-based (HeLa) assay for measurement of IDO1 inhibition (kynurenine levels in supernatant after IFNγ induction); details: HeLa cells, IFNγ-induced IDO1, kynurenine in supernatant after 48 hour incubation; geometric mean of a minimum of four determinations
reported.endpoint: EC50 (nM)

Worked cases, answers included:
CCNc1nc2nccc(/C(=N/O)Nc3ccc(F)c(Cl)c3)c2[nH]1	1080
O/N=C(\Nc1ccc(Cl)c2ccccc12)c1ccnc2nc[nH]c12	3030
CC(O)CNc1nc2c(F)c(F)cc(/C(=N/O)Nc3ccc(F)c(Cl)c3)c2[nH]1 (stereo not drawn)	3000
O/N=C(\Nc1ccc(F)c(Cl)c1)c1ccnc2nc(CNCCCN3CCOCC3)[nH]c12	3020
O/N=C(\Nc1ccc(F)c(Cl)c1)c1ccc(F)c2nc(NCCN3CCOCC3)[nH]c12	6740
O/N=C(\Nc1ccc(F)c(Cl)c1)c1ccnc2nc(CCN3CCC3)[nH]c12	1300

I: O/N=C(\Nc1ccc(F)c(Cl)c1)c1ccnc2nc(NC3CCC3)[nH]c12
II: OCc1nc2c(/C(=N/O)Nc3ccc(F)c(C(F)(F)F)c3)ccnc2[nH]1
# input Min EC50? I | II Answer = label.
# output I

I: O/N=C(\Nc1cccc(C(F)(F)F)c1)c1ccnc2nc[nH]c12
II: O/N=C(\Nc1ccc(F)c(Cl)c1)c1ccnc2nc(NC3CC(F)(F)C3)[nH]c12
III: COCCCN(C)Cc1nc2nccc(/C(=N/O)Nc3ccc(F)c(Cl)c3)c2[nH]1
IV: CCc1cccc(N/C(=N\O)c2ccnc3nc[nH]c23)c1
# input List the 4 entries from lowest EC50 to highest EC50 value. List each label, following the requested order.
# output I, IV, III, II

====

Target: IDO1 (Homo sapiens, UniProt P14902)
Construct: HeLa cells were treated with a test compound in the presence of IFNγ, which induces IDO1 expression; host or cells: H1-HeLa cells, IDO1 induced with IFNγ
Test: Cell-based (HeLa) assay for measurement of IDO1 inhibition (kynurenine levels in supernatant after IFNγ induction)
Settings: HeLa cells, IFNγ-induced IDO1, kynurenine in supernatant after 48 hour incubation; geometric mean of a minimum of four determinations
Procedure: Example 509. Cell-Based (HeLa) Assay for Measurement of IDOL Inhibition To measure IDO1 inhibition in tissue culture, HeLa cells were treated with a test compound in the presence of IFNγ, which induces IDO1 expression. […] Data in Table 1 were normalized based on positive (−IFNγ) and negative (+IFNγ) controls and EC50 values were calculated from the fit of the dose response curves to a four-parameter equation. […]
reported.endpoint: EC50 (nM)

Worked cases, answers included:
O/N=C(\Nc1ccc(F)c(Cl)c1)c1ccnc2nc(C(O)C(F)(F)F)[nH]c12 (stereo not shown)	4200
OCCCNCc1nc2nccc(/C(=N/O)Nc3ccc(F)c(Cl)c3)c2[nH]1	8240

a: NCc1nc2c(F)ccc(/C(=N/O)Nc3ccc(F)c(Cl)c3)c2[nH]1
b: O/N=C(\Nc1ccc(F)c(Cl)c1)c1ccnc2nc(-c3ccn[nH]3)[nH]c12
c: O/N=C(\Nc1ccc(F)c(Cl)c1)c1cc(F)c(F)c2nc(NCCN3CCOCC3)[nH]c12
d: O/N=C(\Nc1ccc(F)c(Cl)c1)c1cc(F)cc2nc[nH]c12
# input List the 4 entries from lowest EC50 to highest EC50 value. List each label, following the requested order.
# output c, d, a, b
(c: 346 nM, d: 527 nM, a: 2650 nM, b: 8480 nM)

====

molecular target: IDO1 (Homo sapiens); construct: HeLa cells were treated with a test compound in the presence of IFNγ, which induces IDO1 expression; host or cells: H1-HeLa cells, IDO1 induced with IFNγ; test: Cell-based (HeLa) assay for measurement of IDO1 inhibition (kynurenine levels in supernatant after IFNγ induction); conditions: HeLa cells, IFNγ-induced IDO1, kynurenine in supernatant, 48 hour incubation; geometric mean of a minimum of four determinations
reported.endpoint: EC50 (nM)

Worked cases, answers included:
CC(CNc1nc2c(F)c(F)cc(/C(=N/O)Nc3ccc(F)c(Cl)c3)c2[nH]1)CN(C)C (stereo not shown)	437
CN(C)C1(CNc2nc3c(F)c(F)cc(/C(=N/O)Nc4ccc(F)c(Cl)c4)c3[nH]2)CCCCC1	1590
O/N=C(\Nc1ccc(F)c(Cl)c1)c1cc(F)c(F)c2nc(NCC34CCCN3CCC4)[nH]c12	852
CC1CCN(C)C(CNc2nc3c(F)c(F)cc(/C(=N/O)Nc4ccc(F)c(Cl)c4)c3[nH]2)C1 (stereo not shown)	685

P: CN1CCCC1CCNc1nc2c(F)c(F)cc(/C(=N/O)Nc3ccc(F)c(Cl)c3)c2[nH]1 (stereo not shown)
Q: CN1CCN(CCNc2nc3c(F)c(F)cc(/C(=N/O)Nc4ccc(F)c(Cl)c4)c3[nH]2)CC1=O
# input Min EC50? P | Q Answer = label.
# output P

====

target: IDO1 (Homo sapiens, UniProt P14902); construct: HeLa cells were treated with a test compound in the presence of IFNγ, which induces IDO1 expression; host or cells: H1-HeLa cells, IDO1 induced with IFNγ; experiment: Cell-based (HeLa) assay for measurement of IDO1 inhibition (kynurenine levels in supernatant after IFNγ induction); conditions: HeLa cells, IFNγ-induced IDO1, kynurenine in supernatant, 48 hour incubation; geometric mean of a minimum of four determinations
pEC50: −log10 of the molar value.
reported.endpoint: pEC50

Worked cases, answers included:
CN(C)[C@@H]1CCC[C@H](Nc2nc3c(F)c(F)cc(/C(=N/O)Nc4ccc(F)c(Cl)c4)c3[nH]2)C1	5.18
O/N=C(\Nc1ccc(F)c(Cl)c1)c1ccc(F)c2nc(NCCN3CCOCC3)[nH]c12	5.40
Nc1nc2cc(F)cc(/C(=N/O)Nc3cccc(Cl)c3)c2[nH]1	6.19

1: CN1CCOC(CNc2nc3c(F)c(F)cc(/C(=N/O)Nc4ccc(F)c(Cl)c4)c3[nH]2)C1 (centres unmarked)
2: CNC(C)Cc1nc2nccc(/C(=N/O)Nc3ccc(F)c(Cl)c3)c2[nH]1 (centres unmarked)
3: Nc1nc2cc(F)cc(/C(=N/O)Nc3ccc(F)c(Br)c3)c2[nH]1
4: CN1CC[C@@H](Nc2nc3c(F)c(F)cc(/C(=N/O)Nc4ccc(F)c(Cl)c4)c3[nH]2)C1
# input List these items ordered by pEC50, big to small. List each label, following the requested order.
# output 4, 3, 1, 2

====

biological target: IDO1 (Homo sapiens, UniProt P14902); construct: HeLa cells were treated with a test compound in the presence of IFNγ, which induces IDO1 expression; host or cells: H1-HeLa cells, IDO1 induced with IFNγ; assay: Cell-based (HeLa) assay for measurement of IDO1 inhibition (kynurenine levels in supernatant after IFNγ induction); conditions: HeLa cells, IFNγ-induced IDO1, kynurenine in supernatant after 48 hour incubation; geometric mean of a minimum of four determinations
pEC50: −log10 of the molar value.
reported.endpoint: pEC50

Worked cases, answers included:
CN(C)CC(O)c1nc2nccc(/C(=N/O)Nc3ccc(F)c(Cl)c3)c2[nH]1 (centres unmarked)	5.94
CCN(CC)CCNc1nc2c(F)c(F)cc(/C(=N/O)Nc3ccc(F)c(Cl)c3)c2[nH]1	6.61
O/N=C(\Nc1cccc(OC(F)(F)F)c1)c1ccnc2nc[nH]c12	6.22

A: O/N=C(\Nc1cc(Cl)c(F)c(Cl)c1)c1ccnc2nc[nH]c12
B: C#Cc1cccc(N/C(=N\O)c2ccnc3nc[nH]c23)c1
C: COCCNc1nc2c(F)c(F)cc(/C(=N/O)Nc3ccc(F)c(Cl)c3)c2[nH]1
# input List these items ordered by pEC50, big to small. List each label, following the requested order.
# output B, A, C
(B: 6.52, A: 6.11, C: 5.82)
